Assay: Dark toxicity in human HeLa cells assessed as reduction in cell viability after 24 hrs by MTT assay
Format: cell-based
Give measured IC50 at 24 h for each item. Keep answers brief.
Give bare numbers, in µM.

compound	value.units	IC50 at 24 h
COC(C)c1c(C)c2cc3nc(cc4[nH]c(cc5nc(cc1[nH]2)C(C)=C5C(C)O)c(C)c4CCC(=O)O)C(CCC(=O)O)=C3C (configuration not stated)	µM	345
Cc1ccc(-c2c3nc(c(-c4ccc(C)cc4)c4ccc([nH]4)c(-c4ccc(C)cc4)c4nc(c(-c5ccc(C)cc5)c5ccc2[nH]5)C=C4N2CCCC2)C=C3)cc1	µM	280
C1=Cc2nc1c(-c1ccccc1)c1ccc([nH]1)c(-c1ccccc1)c1nc(c(-c3ccccc3)c3ccc([nH]3)c2-c2ccccc2)C(N2CCCCC2)=C1	µM	110
COc1ccc(-c2c3nc(c(-c4ccc(OC)cc4)c4ccc([nH]4)c(-c4ccc(OC)cc4)c4nc(c(-c5ccc(OC)cc5)c5ccc2[nH]5)C=C4N2CCCC2)C=C3)cc1	µM	387
Clc1ccc(-c2c3nc(c(-c4ccc(Cl)cc4)c4ccc([nH]4)c(-c4ccc(Cl)cc4)c4nc(c(-c5ccc(Cl)cc5)c5ccc2[nH]5)C=C4N2CCCC2)C=C3)cc1	µM	81.6

Count: 2. Required value per item: IC50 at 24 h.
1. C1=Cc2nc1c(-c1ccccc1)c1ccc([nH]1)c(-c1ccccc1)c1nc(c(-c3ccccc3)c3ccc([nH]3)c2-c2ccccc2)C(N2CCCC2)=C1
2. C1=Cc2nc1c(-c1ccccc1)c1ccc([nH]1)c(-c1ccccc1)c1nc(c(-c3ccccc3)c3ccc([nH]3)c2-c2ccccc2)C(N2CCOCC2)=C1

Result:
1: 172; 2: 93.4

---

Assay: Absorption property of the compound in DMSO assessed as soret band absorption coefficient by UV-visible spectrophotometric method
Format: physicochemical
measure.name: Activity

Count: 2. Required value per item: Activity.
1. COc1ccc(-c2c3nc(c(-c4ccc(OC)cc4)c4ccc([nH]4)c(-c4ccc(OC)cc4)c4nc(c(-c5ccc(OC)cc5)c5ccc2[nH]5)C=C4N2CCCC2)C=C3)cc1
2. C1=Cc2nc1c(-c1ccccc1)c1ccc([nH]1)c(-c1ccccc1)c1nc(c(-c3ccccc3)c3ccc([nH]3)c2-c2ccccc2)C(N2CCOCC2)=C1

Result:
1. 13.43 10^4/M/cm
2. 16.08 10^4/M/cm

Count: 4. Required value per item: Activity.
1. Cc1ccc(-c2c3nc(c(-c4ccc(C)cc4)c4ccc([nH]4)c(-c4ccc(C)cc4)c4nc(c(-c5ccc(C)cc5)c5ccc2[nH]5)C=C4N2CCCC2)C=C3)cc1
2. C1=Cc2nc1c(-c1ccccc1)c1ccc([nH]1)c(-c1ccccc1)c1nc(c(-c3ccccc3)c3ccc([nH]3)c2-c2ccccc2)C(N2CCCCC2)=C1
3. Clc1ccc(-c2c3nc(c(-c4ccc(Cl)cc4)c4ccc([nH]4)c(-c4ccc(Cl)cc4)c4nc(c(-c5ccc(Cl)cc5)c5ccc2[nH]5)C=C4N2CCCC2)C=C3)cc1
4. C1=Cc2nc1c(-c1ccccc1)c1ccc([nH]1)c(-c1ccccc1)c1nc(c(-c3ccccc3)c3ccc([nH]3)c2-c2ccccc2)C(N2CCCC2)=C1

Result:
1. 16.52 10^4/M/cm
2. 8.32 10^4/M/cm
3. 14.75 10^4/M/cm
4. 14.53 10^4/M/cm
